Target: T1, recombinant soluble human C4.4a (human, UniProt O95274 31-308)
T1 construct: recombinant, soluble, purified protein; also called hC4.4a; full length C4.4a
T1 sequence: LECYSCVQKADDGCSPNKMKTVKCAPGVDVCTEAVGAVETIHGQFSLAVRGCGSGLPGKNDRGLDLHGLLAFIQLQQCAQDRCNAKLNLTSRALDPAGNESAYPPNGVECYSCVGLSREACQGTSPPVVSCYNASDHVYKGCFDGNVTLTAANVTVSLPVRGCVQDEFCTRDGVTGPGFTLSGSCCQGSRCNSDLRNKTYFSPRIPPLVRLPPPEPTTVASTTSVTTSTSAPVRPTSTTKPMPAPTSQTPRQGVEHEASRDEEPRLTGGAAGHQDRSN
Assay: direct ELISA, Fab supernatant on coated human C4.4a, signal normalized to Fab quantity
test_readout: normalized affinity signal (median)

>>> readout_value("M31-B01 Fab HC A32Y (Fab, V domains shown, Fab with 3×HA-tag and hexa-histidine tag at the C-terminus of the heavy chain, culture supernatant) VH: EVQLLESGGGLVQPGGSLRLSCAASGFTFSNYWMSWVRQAPGKGLEWVSYISSSGSTIYYADSVKGRFTISRDNSKNTLYLQMNSLRAEDTAVYYCAREGLWAFDYWGQGTLVTVTS VL: QSVLTQPPSASGTPGQRVTISCTGSSSNIGAGYVVHWYQQLPGTAPKLLIYDNNKRPSGVPDRFSGSKSGTSASLAISGLRSEDEADYYCAAWDDRLNGPVFGGGTKLTVLG")
2.31
>>> readout_value("M31-B01 Fab HC T56S (Fab, V domains shown, Fab with 3×HA-tag and hexa-histidine tag at the C-terminus of the heavy chain, culture supernatant) VH: EVQLLESGGGLVQPGGSLRLSCAASGFTFSNAWMSWVRQAPGKGLEWVSYISSSGSSIYYADSVKGRFTISRDNSKNTLYLQMNSLRAEDTAVYYCAREGLWAFDYWGQGTLVTVTS VL: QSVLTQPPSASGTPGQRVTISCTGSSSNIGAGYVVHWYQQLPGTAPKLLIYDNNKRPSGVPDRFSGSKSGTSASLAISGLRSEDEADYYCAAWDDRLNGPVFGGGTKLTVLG")
1.58

This collection of values is drawn from patent US20120321619A1.
